Reference source: ChEMBL document CHEMBL4118215

Test: Half-life in guinea pig liver microsomes in presence of NADPH regenerating system by LC/MS/MS method
Assay type: ADME, Cavia porcellus, microsome
measure_name: half-life (h)
// return numeric value only (unit: h, not printed)

Field request: half-life | item: CC(=O)N1CCN(c2ccc(OCC3COC(Cn4ccnc4)(c4ccc(Cl)cc4Cl)O3)cc2)CC1 (centres undefined)
0.667

Here is the next compound: CC(=O)N1CCN(c2ccc(/C=C/c3cc(F)cc(-c4ccncc4)c3)cc2)CC1
1

Here is the next compound: O=S(=O)(N1CCN(c2ccc(/C=C/c3cc(F)cc(-c4ccncc4)c3)cc2)CC1)C(F)(F)F
1

Here is the next compound: CCS(=O)(=O)N1CCN(c2ccc(/C=C/c3cc(F)cc(-c4ccncc4)c3)cc2)CC1
1

====

Experiment: AUC (0 to infinity) in guinea pig at 1 mg/kg, iv by LC-MS/MS analysis
Format: ADME, organism-based, Cavia porcellus
Parameters: dose 1 mg/kg, route intravenous, time infinity
Conditions: in vivo
measure_name: AUC(0-inf)

Field request: AUC(0-inf) | item: CCS(=O)(=O)N1CCN(c2ccc(/C=C/c3cc(F)cc(-c4ccncc4)c3)cc2)CC1
2000 ng·h/mL

Here is the next compound: O=S(=O)(N1CCN(c2ccc(/C=C/c3cc(F)cc(-c4ccncc4)c3)cc2)CC1)C(F)(F)F
815 ng·h/mL

Here is the next compound: CC(=O)N1CCN(c2ccc(/C=C/c3cc(F)cc(-c4ccncc4)c3)cc2)CC1
586 ng·h/mL

====

I'd appreciate it if you could supply pIC50 values for the items below.
Target: Steroid 17-alpha-hydroxylase/17,20 lyase (Homo sapiens, UniProt P05093)
Sequence (P05093 whole entry): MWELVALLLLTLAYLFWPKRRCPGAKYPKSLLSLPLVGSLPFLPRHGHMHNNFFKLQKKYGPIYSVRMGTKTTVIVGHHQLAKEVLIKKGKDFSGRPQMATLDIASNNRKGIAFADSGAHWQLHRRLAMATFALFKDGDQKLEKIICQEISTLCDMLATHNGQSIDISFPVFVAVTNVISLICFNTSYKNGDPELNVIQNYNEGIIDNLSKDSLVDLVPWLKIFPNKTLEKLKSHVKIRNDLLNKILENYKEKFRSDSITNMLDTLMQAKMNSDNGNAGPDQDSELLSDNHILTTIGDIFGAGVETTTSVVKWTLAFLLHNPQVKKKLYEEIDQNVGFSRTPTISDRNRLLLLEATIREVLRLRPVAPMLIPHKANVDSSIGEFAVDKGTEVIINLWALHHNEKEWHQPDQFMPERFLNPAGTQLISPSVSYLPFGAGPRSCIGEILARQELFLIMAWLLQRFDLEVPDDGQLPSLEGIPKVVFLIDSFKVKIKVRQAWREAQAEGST
Test: Inhibition of recombinant CYP17 (unknown origin) expressed in human AD293 cells using [21-3H]17alpha-hydroxypregnenolone as substrate preincubated for 60 mins followed by substrate addition measured after 4 hrs Topcount method
Worth noting: pIC50 values are minus log10 of concentrations stated in mol/L.

Field request: pIC50 | item: O=S(=O)(N1CCN(c2ccc(/C=C/c3cc(F)cc(-c4ccncc4)c3)cc2)CC1)C(F)(F)F
8.70

Here is the next molecule: N=C(N)N1CCN(c2ccc(/C=C/c3cc(Cl)cc(-c4ccncc4)c3)cc2)CC1
7.77

Here is the next molecule: O=S(=O)(C(F)F)N1CCN(c2ccc(/C=C/c3cc(F)cc(Cn4ccnc4)c3)cc2)CC1
8.30

Here is the next molecule: N#CCS(=O)(=O)N1CCN(c2ccc(/C=C/c3cc(Cl)cc(-c4ccncc4)c3)cc2)CC1
8.22

Here is the next molecule: O=S(=O)(C(F)F)N1CCN(c2ccc(/C=C/c3cc(Cl)cc(-c4ccncc4)c3)cc2)CC1
8.30

Here is the next molecule: O=S(=O)(C1CC1)N1CCN(c2ccc(/C=C/c3cc(F)cc(Cn4ccnc4)c3)cc2)CC1
7.47

Here is the next molecule: O=S(=O)(C1CC1)N1CCN(c2ccc(/C=C/c3cc(F)cc(-c4ccncc4)c3)cc2)CC1
9.00

Here is the next molecule: O=S(=O)(C(F)F)N1CCN(c2ccc(/C=C/c3cc(F)cc(-c4ccncc4)c3)cc2)CC1
8.30
